- ASSAY TEXT: in vitro
- CONDITIONS USED: mouse, hepatocytes
VALUE TYPE: hepatocyte CLint (µL/min/1e6 cells)
Reply numerically in µL/min/1e6 cells, unit not repeated.

Please look at this compound and report its hepatocyte CLint: CS(C)(=O)=Nc1ccc(-c2ccc(-c3nc4[nH]c(O[C@@H]5CO[C@H]6[C@@H]5OC[C@H]6O)nc4cc3Cl)cc2)cc1 [BI9774]
8.6

---

- ASSAY TEXT: physchem
- CONDITIONS USED: aqueous phosphate buffer, pH 7.4, aqueous buffer
VALUE TYPE: solubility at 27 h

Please look at this molecule and report its solubility at 27 h: CS(C)(=O)=Nc1ccc(-c2ccc(-c3nc4[nH]c(O[C@@H]5CO[C@H]6[C@@H]5OC[C@H]6O)nc4cc3Cl)cc2)cc1
8 µM

---

- TESTED SYSTEM: AMPK α1β1γ1 (Homo sapiens, UniProt Q13131+Q9Y478)
- Sequence (Q13131 whole entry): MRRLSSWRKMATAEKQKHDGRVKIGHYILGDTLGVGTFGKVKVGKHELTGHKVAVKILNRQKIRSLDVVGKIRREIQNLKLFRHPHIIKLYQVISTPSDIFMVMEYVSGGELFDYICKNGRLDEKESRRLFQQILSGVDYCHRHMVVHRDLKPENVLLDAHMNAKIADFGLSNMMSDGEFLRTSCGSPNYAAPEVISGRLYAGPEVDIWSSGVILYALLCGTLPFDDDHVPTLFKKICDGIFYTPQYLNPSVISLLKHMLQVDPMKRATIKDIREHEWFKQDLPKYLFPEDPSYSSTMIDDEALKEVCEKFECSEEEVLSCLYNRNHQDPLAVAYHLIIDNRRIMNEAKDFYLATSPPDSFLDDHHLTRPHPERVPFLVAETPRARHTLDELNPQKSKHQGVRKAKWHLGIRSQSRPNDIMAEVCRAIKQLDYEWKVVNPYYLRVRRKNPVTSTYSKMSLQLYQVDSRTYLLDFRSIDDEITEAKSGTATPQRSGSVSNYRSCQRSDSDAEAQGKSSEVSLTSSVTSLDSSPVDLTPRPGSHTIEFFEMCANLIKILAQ
- Sequence (Q9Y478 2-270): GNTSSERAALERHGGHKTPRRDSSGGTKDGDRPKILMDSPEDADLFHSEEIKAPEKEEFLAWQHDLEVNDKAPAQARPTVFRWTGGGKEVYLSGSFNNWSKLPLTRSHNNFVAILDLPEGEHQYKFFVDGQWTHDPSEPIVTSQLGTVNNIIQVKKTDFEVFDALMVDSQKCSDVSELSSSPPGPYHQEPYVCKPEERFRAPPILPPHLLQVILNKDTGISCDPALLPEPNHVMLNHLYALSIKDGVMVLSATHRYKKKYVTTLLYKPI
- Sequence (P54619 whole entry partner): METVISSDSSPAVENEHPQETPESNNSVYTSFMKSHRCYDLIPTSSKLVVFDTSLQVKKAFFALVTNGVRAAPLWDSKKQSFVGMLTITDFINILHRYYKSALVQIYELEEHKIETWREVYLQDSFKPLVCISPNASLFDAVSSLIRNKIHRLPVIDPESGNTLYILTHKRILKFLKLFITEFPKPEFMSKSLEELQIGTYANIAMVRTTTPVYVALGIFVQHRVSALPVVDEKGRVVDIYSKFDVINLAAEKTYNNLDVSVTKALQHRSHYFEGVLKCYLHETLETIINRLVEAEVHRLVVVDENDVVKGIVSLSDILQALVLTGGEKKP
- ASSAY TEXT: Caliper mobility shift kinase assay, FAM-SAMS peptide
VALUE TYPE: EC50
Number first, unit second.

Please look at this molecule and report its EC50: CS(C)(=O)=Nc1ccc(-c2ccc(-c3nc4[nH]c(O[C@@H]5CO[C@H]6[C@@H]5OC[C@H]6O)nc4cc3Cl)cc2)cc1
20 nM

---

- ASSAY TEXT: in vitro
- CONDITIONS USED: rat, hepatocytes
VALUE TYPE: hepatocyte CLint

Please look at this compound and report its hepatocyte CLint: CS(C)(=O)=Nc1ccc(-c2ccc(-c3nc4[nH]c(O[C@@H]5CO[C@H]6[C@@H]5OC[C@H]6O)nc4cc3Cl)cc2)cc1
< 1.4 µL/min/1e6 cells

---

- ASSAY TEXT: in vitro
- CONDITIONS USED: human, liver microsomes
VALUE TYPE: microsomal CLint

Please look at this molecule and report its microsomal CLint: CS(C)(=O)=Nc1ccc(-c2ccc(-c3nc4[nH]c(O[C@@H]5CO[C@H]6[C@@H]5OC[C@H]6O)nc4cc3Cl)cc2)cc1 [BI9774]
< 3 µL/min/mg

---

- ASSAY TEXT: in vitro
- CONDITIONS USED: human, hepatocytes
VALUE TYPE: hepatocyte CLint

Please look at this molecule and report its hepatocyte CLint: CS(C)(=O)=Nc1ccc(-c2ccc(-c3nc4[nH]c(O[C@@H]5CO[C@H]6[C@@H]5OC[C@H]6O)nc4cc3Cl)cc2)cc1 [BI9774]
< 1 µL/min/1e6 cells

---

- ASSAY TEXT: in vitro
- CONDITIONS USED: human, Caco-2
VALUE TYPE: Papp (×10⁻⁶ cm/s)
Reply numerically in ×10⁻⁶ cm/s, unit not repeated.

Please look at this compound and report its Papp: CS(C)(=O)=Nc1ccc(-c2ccc(-c3nc4[nH]c(O[C@@H]5CO[C@H]6[C@@H]5OC[C@H]6O)nc4cc3Cl)cc2)cc1 [BI9774]
26
